Provide the recorded pIC50 for the entries that follow.
# Test system: IL-12 signaling
# Assay notes: IL-12 dependent in vitro T-helper cell (Th1) differentiation assay
# Format: cell-based
# Setup conditions: T-cell, 168 h; inhibition of IL-12 induced Th1 differentiation as defined by IFN-γ production upon secondary stimulation with anti-CD3 alone; splenic T cells, seven days culture
Where a name gives a salt, the structure may show the parent alone.
Schema: pIC50 number; meaning minus log10 of the concentration expressed in molar units.

In: Item under review: Cc1cc(=O)c2c(=O)n(CCCC[C@@H](C)N(C)C)c(=O)n(C)c2[nH]1 [Example 6, Acetic Acid Salt] . Reported pIC50?
Out: 4.85

In: Entry CO[C@H](C)CCCCn1c(=O)c2c(=O)cc(C)[nH]c2n(C)c1=O please
Out: 5.15

In: Next compound up: Cc1cc(=O)c2c(=O)n(CCCC[C@@H](C)O)c(=O)n(C)c2[nH]1
Out: 4.72

###

Please go through the items and note down their IC50.
# Test system: IL-12 signaling
# Assay notes: Modified acute assay
# Assay type: cell-based
# Setup conditions: T-cell, 72 h, purified splenic T cells, anti-CD3 or lectin stimulation, Interferon-γ by ELISA
Structures can show the parent of a compound that is named as a salt.
Give the number; µM is assumed, so skip it.

In: Which IC50 is listed for Cc1cc(N(C)C)nc2c1c(=O)n(CCCC[C@@H](C)O)c(=O)n2C ?
Out: 6

In: Next molecule: Cc1cc(N(C)C)c2c(=O)n(CCCC[C@@H](C)N(C)C)c(=O)n(C)c2n1
Out: 26

In: Now consider Cc1cc(=O)c2c(=O)n(CCCC[C@@H](C)O)c(=O)n(C)c2n1Cc1ccccc1 .
Out: 8

In: Would you kindly repeat that for Cc1cc(=O)c2c(=O)n(CCCC[C@@H](C)N(C)C)c(=O)n(C)c2[nH]1 [Example 6, Acetic Acid Salt] ?
Out: 9

In: What about Cc1cc(C)c2c(=O)n(CCCC[C@@H](C)O)c(=O)n(C)c2n1 ?
Out: 33
